Attribution: patent US20210206841A1

Target: T1, tip-chimeric peptide IhfA5-mIhfB4NTHI (nontypeable Haemophilus influenzae …)
T1 construct: also called IHF(NTHI) tip chimeric peptide; IHFNTHI tip chimeric peptide
T1 peptide: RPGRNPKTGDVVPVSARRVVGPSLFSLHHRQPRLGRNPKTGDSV
Test: SPR Biacore 3000, peptide immobilized, HuMab as analyte
MEASUREMENT KIND: koff (s⁻¹)
Numbers only; they are read as s⁻¹.

Q: # koff lookup, item humanized anti-tip monoclonal antibody, heavy chain SEQ ID NO: 2 and light chain SEQ ID NO: 8 (antibody, V domains shown, also called H10211 (1F8.F1 Humanized HC2) + L10211 (1F8.F1 Humanized LC2)) VH: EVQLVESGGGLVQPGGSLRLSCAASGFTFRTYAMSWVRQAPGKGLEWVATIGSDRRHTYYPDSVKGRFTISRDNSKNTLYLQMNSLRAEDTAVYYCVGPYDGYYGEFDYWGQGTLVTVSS VL: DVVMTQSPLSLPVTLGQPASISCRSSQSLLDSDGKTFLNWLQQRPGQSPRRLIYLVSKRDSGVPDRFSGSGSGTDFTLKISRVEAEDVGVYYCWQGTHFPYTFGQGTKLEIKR
A: 0.00028

Q: Which measured koff value corresponds to humanized anti-tip monoclonal antibody, heavy chain SEQ ID NO: 3 and light chain SEQ ID NO: 8 (antibody, V domains shown, also called H10212 (1F8.F1 Humanized HC3) + L10211 (1F8.F1 Humanized LC2)) VH: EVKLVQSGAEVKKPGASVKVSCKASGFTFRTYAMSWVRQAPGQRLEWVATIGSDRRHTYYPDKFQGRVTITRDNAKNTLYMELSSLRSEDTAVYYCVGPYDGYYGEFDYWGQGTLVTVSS VL: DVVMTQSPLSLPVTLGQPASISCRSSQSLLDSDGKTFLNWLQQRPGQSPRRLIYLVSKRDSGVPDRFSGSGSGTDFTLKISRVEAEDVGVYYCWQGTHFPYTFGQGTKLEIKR ?
A: 0.00035

Q: Entry humanized anti-tip monoclonal antibody, heavy chain SEQ ID NO: 3 and light chain SEQ ID NO: 9 (antibody, V domains shown, also called H10212 (1F8.F1 Humanized HC3) + L10212 (1F8.F1 Humanized LC3)) VH: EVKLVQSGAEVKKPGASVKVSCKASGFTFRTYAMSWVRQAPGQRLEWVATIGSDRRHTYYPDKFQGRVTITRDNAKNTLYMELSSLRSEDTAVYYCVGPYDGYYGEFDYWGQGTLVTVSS VL: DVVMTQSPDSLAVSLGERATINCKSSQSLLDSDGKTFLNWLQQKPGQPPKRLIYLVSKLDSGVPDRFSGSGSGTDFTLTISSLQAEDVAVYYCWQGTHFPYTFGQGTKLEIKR : reported koff = ?
A: 0.00021
